Assay: small-molecule microarray binders of probe aXIP, primary screen, biochemical, NeuroSMM set, 635/667 nm fluorescence (AID 1119);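 note: probe is the protein aXip251-270 applied at 1 µg/mL to compound-printed slides; binding of probe to printed compounds measured as 667 nm fluorescence plus signal to noise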
Details: higher = more signal, called active from +8 up or from −8 down
Answer each item with its documented composite Z-score.
Answers are plain numbers.

C=CC[C@@H]1C=C[C@H](ON=C(C)CCN2CCc3nc(CC)c(CC)cc3C2)[C@@H](CO)O1	-2.12
CCCNC(=O)[C@@H]1c2ccccc2C(=O)N(Cc2ccccc2Cl)[C@H]1c1ccc(CO)cc1	-0.231
O=C1[C@H]2[C@H]3[C@H](O)[C@H](O)CC(=NOCc4ccccc4)[C@H]3CC[C@H]2C(=O)N1C[C@@H]1CCCO1	0.324

Continue with the next compound.
Documented composite Z-score of C=C(/C(=C/C[C@H](OC(=O)c1ccncc1)c1ccc(OCCO)cc1)c1cnc2ccccc2c1)C(C)C : 0.184

====

Experiment: small-molecule microarray binders of probe aWnt5a, primary screen, biochemical, biotinylated probe, 635/667 nm fluorescence (AID 1113);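 note: score merges 667 nm fluorescence intensity with signal-to-noise per printed feature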
Details: higher = more signal
Answer each item with its documented composite z-score.
Answers are plain numbers.

CCN1C(=O)[C@H]2[C@H]3[C@H](O)[C@H](O)CC(=NO[C@@H]4O[C@H](CO)[C@@H](O)[C@H](O)[C@H]4O)[C@@H]3CC[C@H]2C1=O	-0.18

Batch request: composite z-score per item, same order as input.
1. O=C1[C@H]2[C@H]3[C@H](O)[C@H](O)CC(=NO[C@@H]4O[C@H](CO)[C@@H](O)[C@H](O)[C@H]4O)[C@@H]3CC[C@H]2C(=O)N1Cc1ccccc1
2. CCOC(=O)[C@H](Cc1ccccc1)NC(=O)CCC1CC(OC(=O)NCc2ccc3c(c2)OCO3)CC2(CCCC(COC(=O)NCC3CCCCC3)O2)O1 (some centres undefined)
3. CC(CCN1CCCCc2nc(C)c(C)cc21)=NOC(C)CN1CCCCc2nc(C)c(C)cc21 (centres undefined)
4. COc1ccc([Si](C)(C)[C@@H]2[C@@H](CC(=O)N3CCC[C@H]3CO)O[C@]3(C(=O)N(Cc4cccc(N5CCC5=O)c4)c4ccccc43)[C@H]2C)cc1
5. CC[C@@H](c1ccccc1)n1c(=O)n2n(c1=O)[C@H]1[C@H](O)[C@@H]3O[C@@H]3C(=NOCC=C(C)CCC=C(C)C)[C@H]1CC2
6. C=CC[C@@H]1C=C[C@H](ON=C2c3cc(OC)ccc3O[C@H](c3cccc(OC)c3)[C@H]2O)[C@@H](CO)O1
7. CCOC(=O)[C@H](Cc1ccccc1)NC(=O)CCC1CC(OC(=O)NCc2ccc3c(c2)OCO3)CC2(CCCC(COC(=O)NCC(c3ccccc3)c3ccccc3)O2)O1 (some centres undefined)

1: -0.136; 2: -0.0179; 3: -0.096; 4: -0.0236; 5: -0.001; 6: -0.175; 7: -0.175

Batch request: composite z-score per item, same order as input.
1. C#CCCCON=C1C[C@@H](O)[C@@H](O)[C@@H]2[C@@H]3C(=O)N([C@@H](C)c4ccccc4)C(=O)[C@@H]3CC[C@H]12
2. O=C1CCCC=C1C(O)CCOCc1ccccc1 (centres undefined)
3. COC(=O)[C@@H]1CC[C@H](C)[C@@H](c2ccc(C)cc2)N1C(=O)c1ccc(C=NOC(C)CN2CCCCc3nc(C)c(C)cc32)cc1 (some centres undefined)
4. O=C1O[C@@H](c2ccccc2)[C@@H](c2ccccc2)N2[C@@H](c3ccc(O)cc3)[C@]3(C(=O)Nc4ccccc43)[C@@H](C(=O)O)[C@H]12
5. CO[C@H]1O[C@H](CO)[C@@H](OC(=O)Nc2ccc3c(c2)OCO3)[C@H](OC(=O)Nc2ccccc2-c2ccccc2)[C@@H]1OC(=O)Nc1ccccc1-c1ccccc1
6. O=C1[C@H]2[C@H]3[C@H](O)[C@H](O)CC(=NOC[C@@H](O)COCc4ccco4)[C@H]3CC[C@H]2C(=O)N1C1CCCCC1

[0.0354, -0.0735, 0.0437, -0.174, 0.0601, -0.104]
